Test: Plasma protein binding in mouse at 0.2 to 10 ug/ml by equilibrium dialysis
Format: ADME, cell-free
Conditions: at 0.2 to 10 µg/mL, dose 0.2-10 µg/ml, read-out: PPB
Readout Type: fraction unbound

In [3]: df
Out[3]:
                                   compound     val
0  Cc1c(CN(C)C(=O)/C=C/c2cnc3c(c2)CCC(=O)N3COP(=O)(O)O)oc2ccccc12 [AFABICIN]  < 0.05

---

Assay: Plasma protein binding in dog at 0.2 to 10 ug/ml by equilibrium dialysis
Type: ADME, cell-free, Canis lupus familiaris
Details: at 0.2 to 10 µg/mL, dose 0.2-10 µg/ml, read-out: PPB
Readout Type: fraction unbound

>>> df
                                   compound     val
0  Cc1c(CN(C)C(=O)/C=C/c2cnc3c(c2)CCC(=O)N3COP(=O)(O)O)oc2ccccc12 [AFABICIN]  < 0.05

---

Assay: Elimination half life in mouse at 0.3 to 1 mg/kg, po incubated for 24 hrs by LC-MS/MS analysis
Format: ADME, organism-based
Details: in vivo, dose 0.3-1 mg/kg, read-out: beta t1/2 (converted)
Readout Type: half-life

                                   molecule  readout_type  val
0  Cc1c(CN(C)C(=O)/C=C/c2cnc3c(c2)CCC(=O)N3COP(=O)(O)O)oc2ccccc12 [AFABICIN]     half-life  5 h

---

Assay: Oral bioavailability in BALB/c mouse at 32 mg/kg by LC/MS-MS analysis
Format: ADME, organism-based
Settings: in vivo
Readout Type: bioavailability (%)

In [3]: df
Out[3]:
                           substance_smiles  val
0  CN1CCC(C(=O)NC(=O)c2c(F)ccc(OCc3nc4cc(C(F)(F)F)cnc4s3)c2F)CC1    1

---

Assay: Oral bioavailability in hamster
Assay type: ADME, organism-based, Mesocricetus auratus
Details: in vivo
Readout Type: bioavailability (%)

>>> print(df.to_string())
                           substance_smiles     readout_type  val
0  O=c1cc(NCCCN[C@@H]2CCOc3c(Br)cc(Br)cc32)[nH]c2ccsc12  bioavailability  0.6

---

Experiment: Plasma protein binding in Sprague-Dawley rat at 0.2 to 10 ug/ml by equilibrium dialysis
Format: ADME, cell-free
Conditions: at 0.2 to 10 µg/mL, dose 0.2-10 µg/ml, read-out: PPB
Readout Type: fraction unbound

>>> print(df.to_string())
                           substance_smiles      readout_type     val
0  Cc1c(CN(C)C(=O)/C=C/c2cnc3c(c2)CCC(=O)N3COP(=O)(O)O)oc2ccccc12  fraction unbound  < 0.05

---

Test: Cmax in mouse at 1 mg/kg, po incubated for 24 hrs by LC-MS-MS analysis
Type: ADME, organism-based
Design: time 24 hrs, dose 1 mg/kg, route po
Details: in vivo
Readout Type: Cmax

In [3]: df
Out[3]:
                           substance_smiles        val
0  Cc1c(CN(C)C(=O)/C=C/c2cnc3c(c2)CCC(=O)N3COP(=O)(O)O)oc2ccccc12  304 ng/mL

Data origin: ChEMBL document CHEMBL5370525
